These measurements were taken from paper PMC6150173.

Exercise: for every item that follows, state its recorded Hemolysis (%) at 125 µM.
Tested on: erythrocyte suspensions of human blood
Test: Hemolytic activity, hemoglobin release
Type: cell-based
Settings: peptide 125 μM (table prints 125 µM); human blood erythrocytes 5% v/v; absorbance 540 nm; percentage compared to melittin; three replicates
Peptide text beside a SMILES is read from it.
Give bare numbers, in %.

{"columns": ["molecule", "assay.endpoint", "val"],
 "data": [
  ["CC(C)C[C@@H]1NC(=O)[C@H](Cc2c[nH]c3ccccc23)NC(=O)[C@H](CCCCN)NC(=O)[C@H](CCCCN)NC(=O)[C@H](CCCCN)NC(=O)[C@H](CCCCN)NC(=O)[C@H](CCCCN)NC(=O)[C@H](CCC(N)=O)NC(=O)[C@H](CC(C)C)NC(=O)[C@H](CC(C)C)NC1=O [BPC058W, c(KKKKKWLLLQ)] (cyclo(KKKKKWLLLQ))", "Hemolysis (%) at 125 µM", 3],
  ["CC(C)C[C@@H]1NC(=O)[C@H](CCCCN)NC(=O)[C@H](Cc2c[nH]c3ccccc23)NC(=O)[C@H](CCCCN)NC(=O)[C@H](CC(C)C)NC(=O)[C@H](CC(C)C)NC(=O)[C@H](CCCCN)NC(=O)[C@H](CCCCN)NC(=O)[C@H](CCC(N)=O)NC(=O)[C@H](CCCCN)NC1=O [BPC118W, c(KKLLKWKLKQ)] (cyclo(KKLLKWKLKQ))", "Hemolysis (%) at 125 µM", 4],
  ["CC(C)C[C@@H]1NC(=O)[C@H](CCCCN)NC(=O)[C@H](CCCCN)NC(=O)[C@H](CCCCN)NC(=O)[C@H](CCC(N)=O)NC(=O)[C@H](CCCCN)NC(=O)[C@H](CCCCN)NC(=O)[C@H](CC(C)C)NC(=O)[C@H](Cc2c[nH]c3ccccc23)NC(=O)[C@H](CC(C)C)NC1=O [BPC128W, c(KKKLLWLKKQ)] (cyclo(KKKLLWLKKQ))", "Hemolysis (%) at 125 µM", 2],
  ["CC(C)C[C@@H]1NC(=O)[C@H](CCCCN)NC(=O)[C@H](CCCCN)NC(=O)[C@H](Cc2c[nH]c3ccccc23)NC(=O)[C@H](CCCCN)NC(=O)[C@H](CCCCN)NC(=O)[C@H](CCCCN)NC(=O)[C@H](CC(C)C)NC(=O)[C@H](CCCCN)NC(=O)[C@H](CCC(N)=O)NC1=O [BPC198W, c(KLKKKWKKLQ)] (cyclo(KKKWKKLQKL))", "Hemolysis (%) at 125 µM", 4],
  ["CC(C)C[C@@H]1NC(=O)[C@H](CCCCN)NC(=O)[C@H](CCC(N)=O)NC(=O)[C@H](CCCCN)NC(=O)[C@H](CCCCN)NC(=O)[C@H](CCCCN)NC(=O)[C@H](Cc2c[nH]c3ccccc23)NC(=O)[C@H](CC(C)C)NC(=O)[C@H](CC(C)C)NC(=O)[C@H](CCCCN)NC1=O [BPC150W, c(KLKLLWKKKQ)] (cyclo(KKKQKLKLLW))", "Hemolysis (%) at 125 µM", 32]
]}

Query: Form field - read-out: Hemolysis (%) at 125 µM; system: erythrocyte suspensions of human blood; submitted item: CC(C)C[C@@H]1NC(=O)[C@H](CCCCN)NC(=O)[C@H](CCC(N)=O)NC(=O)[C@H](CCCCN)NC(=O)[C@H](CC(C)C)NC(=O)[C@H](CCCCN)NC(=O)[C@H](Cc2c[nH]c3ccccc23)NC(=O)[C@H](CC(C)C)NC(=O)[C@H](CCCCN)NC(=O)[C@H](CCCCN)NC1=O [BPC114W, c(KLKKLWKLKQ)] (cyclo(KKLWKLKQKL))
Response: 38

###

System: erythrocyte suspensions of human blood
Test: Hemolytic activity, hemoglobin release
Assay type: cell-based
Settings: peptide 125 μM (table prints 125 µM); human blood erythrocytes 5% v/v; absorbance 540 nm; percentage compared to melittin; three replicates
Peptide text beside a SMILES is read from it.
For each record, write down the corresponding Hemolysis (%) at 125 µM.
Numbers only, in %.

Field: example entries. Status: answers known.
{"columns": ["molecule", "assay.endpoint", "val"],
 "data": [
  ["CC(C)C[C@@H]1NC(=O)[C@H](CCCCN)NC(=O)[C@H](CCCCN)NC(=O)[C@H](CCC(N)=O)NC(=O)[C@H](CCCCN)NC(=O)[C@H](CCCCN)NC(=O)[C@H](CC(C)C)NC(=O)[C@H](Cc2c[nH]c3ccccc23)NC(=O)[C@H](CC(C)C)NC(=O)[C@H](CCCCN)NC1=O [BPC130W, c(KKLKLWLKKQ)] (cyclo(KKLKLWLKKQ))", "Hemolysis (%) at 125 µM", 2],
  ["CC(C)C[C@@H]1NC(=O)[C@H](CCCCN)NC(=O)[C@H](CCCCN)NC(=O)[C@H](CCCCN)NC(=O)[C@H](CCCCN)NC(=O)[C@H](CCC(N)=O)NC(=O)[C@H](CC(C)C)NC(=O)[C@H](CC(C)C)NC(=O)[C@H](CCCCN)NC(=O)[C@H](Cc2c[nH]c3ccccc23)NC1=O [BPC060W, c(KKKKLWKLLQ)] (cyclo(KKKKLWKLLQ))", "Hemolysis (%) at 125 µM", 29],
  ["CC(C)C[C@@H]1NC(=O)[C@H](CCCCN)NC(=O)[C@H](CCC(N)=O)NC(=O)[C@H](CCCCN)NC(=O)[C@H](CCCCN)NC(=O)[C@H](CCCCN)NC(=O)[C@H](Cc2c[nH]c3ccccc23)NC(=O)[C@H](CCCCN)NC(=O)[C@H](CC(C)C)NC(=O)[C@H](CC(C)C)NC1=O [BPC160W, c(KLLLKWKKKQ)] (cyclo(KKKQKLLLKW))", "Hemolysis (%) at 125 µM", 6],
  ["CC(C)C[C@@H]1NC(=O)[C@H](CCCCN)NC(=O)[C@H](CCCCN)NC(=O)[C@H](Cc2c[nH]c3ccccc23)NC(=O)[C@H](CC(C)C)NC(=O)[C@H](CCCCN)NC(=O)[C@H](CC(C)C)NC(=O)[C@H](CCCCN)NC(=O)[C@H](CCCCN)NC(=O)[C@H](CCC(N)=O)NC1=O [BPC082W, c(KKLKLWKKLQ)] (cyclo(KKLKLWKKLQ))", "Hemolysis (%) at 125 µM", 34],
  ["CC(C)C[C@@H]1NC(=O)[C@H](CCCCN)NC(=O)[C@H](CCCCN)NC(=O)[C@H](Cc2c[nH]c3ccccc23)NC(=O)[C@H](CCCCN)NC(=O)[C@H](CC(C)C)NC(=O)[C@H](CC(C)C)NC(=O)[C@H](CC(C)C)NC(=O)[C@H](CC(C)C)NC(=O)[C@H](CCC(N)=O)NC1=O [BPC200W, c(LLLLKWKKLQ)] (cyclo(KKLQLLLLKW))", "Hemolysis (%) at 125 µM", 7]
]}

Please find the next molecule below.
Query: Recorded Hemolysis (%) at 125 µM for CC(C)C[C@@H]1NC(=O)[C@H](CCC(N)=O)NC(=O)[C@H](CCCCN)NC(=O)[C@H](CCCCN)NC(=O)[C@H](CCCCN)NC(=O)[C@H](Cc2c[nH]c3ccccc23)NC(=O)[C@H](CCCCN)NC(=O)[C@H](CCCCN)NC(=O)[C@H](CC(C)C)NC(=O)[C@H](CC(C)C)NC1=O [BPC166W, c(LLLKKWKKKQ)] (cyclo(KKKQLLLKKW)) , please?
Response: 1

###

Give measured Hemolysis (%) at 125 µM for each item. Keep answers brief.
System: erythrocyte suspensions of human blood
Test: Hemolytic activity, hemoglobin release
Assay type: cell-based
Details: peptide 125 μM (table prints 125 µM); human blood erythrocytes 5% v/v; absorbance 540 nm; percentage compared to melittin; three replicates
Procedure: The hemolytic activity of the compounds was evaluated at 50 and 125 μM by determining hemoglobin release from erythrocyte suspensions of human blood (5% v/v) (Oxoid) using absorbance at 540 nm, as previously described. Three replicates for each peptide concentration were used.
Peptide text beside a SMILES is read from it.
Answers are plain numbers, in %.

Take a look at these entries with their results.
{"columns": ["molecule", "Hemolysis (%) at 125 µM"],
 "data": [
  ["CC(C)C[C@@H]1NC(=O)[C@H](CCCCN)NC(=O)[C@H](CCCCN)NC(=O)[C@H](CCCCN)NC(=O)[C@H](CCCCN)NC(=O)[C@H](CCC(N)=O)NC(=O)[C@H](CCCCN)NC(=O)[C@H](CC(C)C)NC(=O)[C@H](CC(C)C)NC(=O)[C@H](Cc2c[nH]c3ccccc23)NC1=O [BPC100W, c(KKKKLWLLKQ)] (cyclo(KKKKLWLLKQ))", 27],
  ["CC(C)C[C@@H]1NC(=O)[C@H](CCCCN)NC(=O)[C@H](Cc2c[nH]c3ccccc23)NC(=O)[C@H](CCCCN)NC(=O)[C@H](CCCCN)NC(=O)[C@H](CC(C)C)NC(=O)[C@H](CC(C)C)NC(=O)[C@H](CCCCN)NC(=O)[C@H](CCC(N)=O)NC(=O)[C@H](CCCCN)NC1=O [BPC122W, c(KLLKKWKLKQ)] (cyclo(KKWKLKQKLL))", 6],
  ["CC(C)C[C@@H]1NC(=O)[C@H](CCCCN)NC(=O)[C@H](CC(C)C)NC(=O)[C@H](CC(C)C)NC(=O)[C@H](CCCCN)NC(=O)[C@H](CCC(N)=O)NC(=O)[C@H](CCCCN)NC(=O)[C@H](CCCCN)NC(=O)[C@H](CCCCN)NC(=O)[C@H](Cc2c[nH]c3ccccc23)NC1=O [BPC154W, c(KLLKLWKKKQ)] (cyclo(KKKQKLLKLW))", 7],
  ["CC(C)C[C@@H]1NC(=O)[C@H](CCC(N)=O)NC(=O)[C@H](CC(C)C)NC(=O)[C@H](CCCCN)NC(=O)[C@H](CCCCN)NC(=O)[C@H](Cc2c[nH]c3ccccc23)NC(=O)[C@H](CCCCN)NC(=O)[C@H](CC(C)C)NC(=O)[C@H](CCCCN)NC(=O)[C@H](CCCCN)NC1=O [BPC092W, c(LKKLKWKKLQ)] (cyclo(KKLKWKKLQL))", 3],
  ["CC(C)C[C@@H]1NC(=O)[C@H](CCC(N)=O)NC(=O)[C@H](CCCCN)NC(=O)[C@H](CCCCN)NC(=O)[C@H](CC(C)C)NC(=O)[C@H](Cc2c[nH]c3ccccc23)NC(=O)[C@H](CCCCN)NC(=O)[C@H](CCCCN)NC(=O)[C@H](CCCCN)NC(=O)[C@H](CC(C)C)NC1=O [BPC146W, c(LLKKKWLKKQ)] (cyclo(KKKWLKKQLL))", 7],
  ["CC(C)C[C@@H]1NC(=O)[C@H](CCCCN)NC(=O)[C@H](CCCCN)NC(=O)[C@H](CCC(N)=O)NC(=O)[C@H](CCCCN)NC(=O)[C@H](CCCCN)NC(=O)[C@H](CCCCN)NC(=O)[C@H](Cc2c[nH]c3ccccc23)NC(=O)[C@H](CC(C)C)NC(=O)[C@H](CC(C)C)NC1=O [BPC148W, c(KKLLLWKKKQ)] (cyclo(KKKQKKLLLW))", 2],
  ["CC(C)C[C@@H]1NC(=O)[C@H](CCCCN)NC(=O)[C@H](CC(C)C)NC(=O)[C@H](CCCCN)NC(=O)[C@H](CCC(N)=O)NC(=O)[C@H](CCCCN)NC(=O)[C@H](CCCCN)NC(=O)[C@H](CC(C)C)NC(=O)[C@H](Cc2c[nH]c3ccccc23)NC(=O)[C@H](CCCCN)NC1=O [BPC138W, c(KLKLKWLKKQ)] (cyclo(KKQKLKLKWL))", 14],
  ["CC(C)C[C@@H]1NC(=O)[C@H](CCCCN)NC(=O)[C@H](Cc2c[nH]c3ccccc23)NC(=O)[C@H](CCCCN)NC(=O)[C@H](CC(C)C)NC(=O)[C@H](CCCCN)NC(=O)[C@H](CC(C)C)NC(=O)[C@H](CCCCN)NC(=O)[C@H](CCC(N)=O)NC(=O)[C@H](CCCCN)NC1=O [BPC016W, c(KLKLKWKLKQ)] (cyclo(KLKLKWKLKQ))", 32],
  ["CC(C)C[C@@H]1NC(=O)[C@H](CCC(N)=O)NC(=O)[C@H](CCCCN)NC(=O)[C@H](CCCCN)NC(=O)[C@H](CCCCN)NC(=O)[C@H](Cc2c[nH]c3ccccc23)NC(=O)[C@H](CC(C)C)NC(=O)[C@H](CCCCN)NC(=O)[C@H](CC(C)C)NC(=O)[C@H](CCCCN)NC1=O [BPC156W, c(LKLKLWKKKQ)] (cyclo(KKKQLKLKLW))", 2],
  ["CC(C)C[C@@H]1NC(=O)[C@H](CCCCN)NC(=O)[C@H](CC(C)C)NC(=O)[C@H](CCC(N)=O)NC(=O)[C@H](CC(C)C)NC(=O)[C@H](CCCCN)NC(=O)[C@H](CCCCN)NC(=O)[C@H](Cc2c[nH]c3ccccc23)NC(=O)[C@H](CCCCN)NC(=O)[C@H](CCCCN)NC1=O [BPC096W, c(LKLKKWKKLQ)] (cyclo(KKLQLKLKKW))", 15]
]}

Could you tell me Hemolysis (%) at 125 µM for each of these molecules? They are listed below.
1. CC(C)C[C@@H]1NC(=O)[C@H](CCCCN)NC(=O)[C@H](CCC(N)=O)NC(=O)[C@H](CC(C)C)NC(=O)[C@H](CC(C)C)NC(=O)[C@H](CCCCN)NC(=O)[C@H](Cc2c[nH]c3ccccc23)NC(=O)[C@H](CCCCN)NC(=O)[C@H](CCCCN)NC(=O)[C@H](CCCCN)NC1=O [BPC066W, c(KLKKKWKLLQ)] (cyclo(KKKWKLLQKL))
2. CC(C)C[C@@H]1NC(=O)[C@H](CCC(N)=O)NC(=O)[C@H](CC(C)C)NC(=O)[C@H](CCCCN)NC(=O)[C@H](CC(C)C)NC(=O)[C@H](Cc2c[nH]c3ccccc23)NC(=O)[C@H](CCCCN)NC(=O)[C@H](CCCCN)NC(=O)[C@H](CCCCN)NC(=O)[C@H](CCCCN)NC1=O [BPC078W, c(LKKKKWLKLQ)] (cyclo(KKKKWLKLQL))

Response:
1: 41; 2: 6
